This collection of values is drawn from patent US7989459B2.

Each entry below carries its measured Ki, system: UniProtKB Q04759.
Sequence (Q04759 whole entry): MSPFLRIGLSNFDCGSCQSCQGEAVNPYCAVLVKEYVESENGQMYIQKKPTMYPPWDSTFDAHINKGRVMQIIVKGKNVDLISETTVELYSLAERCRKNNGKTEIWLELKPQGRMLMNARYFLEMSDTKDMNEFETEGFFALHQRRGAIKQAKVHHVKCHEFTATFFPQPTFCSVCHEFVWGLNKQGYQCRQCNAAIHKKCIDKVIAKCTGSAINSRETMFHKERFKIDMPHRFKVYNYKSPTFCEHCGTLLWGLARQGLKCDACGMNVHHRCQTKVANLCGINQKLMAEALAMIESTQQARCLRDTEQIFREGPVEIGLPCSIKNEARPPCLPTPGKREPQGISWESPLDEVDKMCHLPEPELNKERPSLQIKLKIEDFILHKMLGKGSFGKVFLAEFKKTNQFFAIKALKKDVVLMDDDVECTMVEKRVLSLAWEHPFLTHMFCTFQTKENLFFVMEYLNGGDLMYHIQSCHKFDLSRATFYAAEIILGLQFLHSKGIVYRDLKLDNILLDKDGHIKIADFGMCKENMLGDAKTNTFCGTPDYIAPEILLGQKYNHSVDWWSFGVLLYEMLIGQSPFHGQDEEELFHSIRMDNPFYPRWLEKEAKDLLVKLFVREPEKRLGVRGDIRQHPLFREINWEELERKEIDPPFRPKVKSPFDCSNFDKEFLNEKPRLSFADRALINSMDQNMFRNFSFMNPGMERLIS

>  <COMPOUND>
NCCCNc1ncc2[nH]c(=O)n(Cc3ccccc3Br)c2n1

>  <MEASUREMENT_TARGET>
UniProtKB Q04759

>  <Ki>
< 100 nM

$$$$
>  <COMPOUND>
NCCCNc1ncc2[nH]c(=O)n(Cc3ccccc3F)c2n1

>  <MEASUREMENT_TARGET>
UniProtKB Q04759

>  <Ki>
< 1000 nM

$$$$
>  <COMPOUND>
O=c1[nH]c2cnc(NCC3CCNC3)nc2n1[C@@H]1CCc2ccccc21 (some centres unmarked)

>  <MEASUREMENT_TARGET>
UniProtKB Q04759

>  <Ki>
< 1000 nM

$$$$
>  <COMPOUND>
O=c1[nH]c2cnc(NCC3CCNC3)nc2n1Cc1ccccc1Br (centres unmarked)

>  <MEASUREMENT_TARGET>
UniProtKB Q04759

>  <Ki>
< 100 nM

$$$$
>  <COMPOUND>
O=c1[nH]c2cnc(NCC3CCNC3)nc2n1Cc1c(Cl)cccc1Cl (centres unmarked)

>  <MEASUREMENT_TARGET>
UniProtKB Q04759

>  <Ki>
< 100 nM

$$$$
